- target: T1, K48-linked diubiquitin (human, UniProt P0CG48 1-76, isopeptide bond between Lys48 of one ubiquitin and the C-terminal Gly of the other)
- T1 construct: Boston Biochem
- assay.name: SPR Biacore, antigen immobilized
measure: koff (s⁻¹)

- Fab apu2.10 (Fab, V domains shown) VH: EVQLVESGGGLVQPGGSLRLSCAASGFNISYSSMHWVRQAPGKGLEWVASIYSYYSYTSYADSVKGRFTISADTSKNTAYLQMNSLRAEDTAVYYCARSYSYFLAMDYWGQGTLVTVSS VL: DIQMTQSPSSLSASVGDRVTITCRASQSVSSAVAWYQQKPGKAPKLLIYSASSLYSGVPSRFSGSRSGTDFTLTISSLQPEDFATYYCQQSSYSSLITFGQGTKVEIK: 0.00399
